B1: POU domain, class 3, transcription factor 1, residues 247 to 324; numbered along this chain, Q03052 (parent)
chain: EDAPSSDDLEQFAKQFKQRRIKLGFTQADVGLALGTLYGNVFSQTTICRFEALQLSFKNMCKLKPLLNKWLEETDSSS

Variants of: B1
Test: abundance fitness (aPCA) (normalised: wild type 0, dead -1); higher = more abundant; growth selection in yeast, the domain comes from the species named
Settings: Homo sapiens
Provide the reported abundance fitness of each item.
Just the number, please, no unit attached.

Query :: Please give the measured abundance fitness for this variant: C48F
Result :: 0.068

Query :: Requested field: abundance fitness. Item: D29M
Result :: -0.654

Query :: Fill blank: measured abundance fitness of the variant R20V is ____.
Result :: -0.636

Query :: Looking for the measured abundance fitness of G35R , can you help?
Result :: 0.005

Query :: GET /values?readout=abundance fitness&item= A52L
Result :: -0.275

Query :: Entry L63M : reported abundance fitness = ?
Result :: -0.11

Query :: Please report the recorded abundance fitness for I47S .
Result :: -0.736

Query :: Item under review: E72C . Reported abundance fitness?
Result :: -0.247

Query :: What abundance fitness value was documented for this variant, G39E ?
Result :: -0.344

Query :: Look up abundance fitness for this variant: C61W
Result :: -0.148

Query :: Tell me the measured abundance fitness of G24V , please.
Result :: -1.01

Query :: Report abundance fitness for Y38A please.
Result :: -0.153

Query :: Fill in: abundance fitness of L71Q is ___
Result :: -0.504

Query :: Consider the variant C61F and give its measured abundance fitness.
Result :: -0.538

Query :: Can you look up the measured abundance fitness of L23G for me?
Result :: -0.56
